Values from the supplement of paper PMC7411054

# Tested on: A549-TP53BP1-CLTA
# protocol_description: phenotypically active (imaging signature differs from DMSO and reproducible) at any of 0.3-9 uM (binary (1 = active, 0 = inactive)); higher = active
# condition_details: treatment time: 24 h
Assign a class; possible classes are true (1) (active), false (0) (inactive)

Example cases with answers are listed next.
CCN1C[C@]2(COC)CC[C@H](O)[C@]34[C@@H]5C[C@H]6[C@H](OC)[C@@H]5[C@](O)(C[C@@H]6OC)[C@](O)([C@H]13)[C@@H](OC)[C@H]24 [Delsoline]
false (0)
Cc1ccc(C[N+](C)(C)C)o1 [5-Methylfurmethiodide]
false (0)
COc1ccc2c(c1OC)C(=O)O[C@@H]2[C@H]1c2cc3c(cc2CCN1C)OCO3 [Hydrastine]
false (0)
COC1=CC(=O)O[C@@H](/C=C/c2ccccc2)C1 [Kawain]
false (0)
CC(C)NCC(O)c1ccc(N)c(C#N)c1 (centres undefined) [Cimaterol]
false (0)

What classification did CN1C[C@H](C(=O)N[C@]2(C)O[C@@]3(O)[C@@H]4CCCN4C(=O)[C@H](Cc4ccccc4)N3C2=O)C[C@@H]2c3cccc4[nH]cc(c34)C[C@H]21.CN1C[C@H](C(=O)N[C@]2(C)O[C@@]3(O)[C@@H]4CCCN4C(=O)[C@H](Cc4ccccc4)N3C2=O)C[C@@H]2c3cccc4[nH]cc(c34)C[C@H]21 [dihydroergotamine] end up with in this test?
true (1)

For this compound, state the assay outcome: "O=C1NC(=O)c2c1c1c3ccccc3n3c1c1c2c2ccccc2n1C1CCC3O1"
false (0)

What classification did O=P1(N(CCCl)CCCl)NCCCO1 (centres undefined) [cyclophosphamide] end up with in this test?
false (0)

Hi, sorry to bother you, what did the test record for CC(C)CC(N(C)C)C1(c2ccc(Cl)cc2)CCC1 (centres undefined) [sibutramine] ?
false (0)
